Origin of measurements: ChEMBL document CHEMBL1138668

- System: HCT-116
- experiment_notes: Growth inhibitory activity against human HCT116 cell line in presence of Hypoxanthine thymidine(HT)
- Type: functional
quantity_measured: GI50 (µM)
Unit µM implied. Number only.

// solved cases for GI50 follow
Return GI50 measured with HCT-116 given this compound: Nc1ncc(-c2ccc(NCc3ccc(F)cc3)c([N+](=O)[O-])c2)cn1
47

Return GI50 measured with HCT-116 given this compound: CCc1nc(N)nc(N)c1-c1ccc(NCc2ccccc2OC)c([N+](=O)[O-])c1
7.5

Return GI50 measured with HCT-116 given this compound: COc1cc(NCc2ccc3nc(N)nc(N)c3c2C)cc(OC)c1OC [TRIMETREXATE]
19

Next:
Return GI50 measured with HCT-116 given this compound: Nc1ncc(-c2ccc(NCc3ccc(Cl)cc3)c([N+](=O)[O-])c2)cn1
5

Return GI50 measured with HCT-116 given this compound: CCc1nc(N)nc(N)c1-c1ccc2[nH]c(-c3ccc(Cl)cc3)[n+]([O-])c2c1
9

Return GI50 measured with HCT-116 given this compound: CCc1nc(N)nc(N)c1-c1ccc(Cl)c([N+](=O)[O-])c1
38

Return GI50 measured with HCT-116 given this compound: CCc1nc(N)nc(N)c1-c1ccc2[nH]c(-c3ccc(F)cc3)[n+]([O-])c2c1
22

Return GI50 measured with HCT-116 given this compound: CCc1nc(N)nc(N)c1-c1ccc(N(C)Cc2ccccc2)c([N+](=O)[O-])c1
7.4

====

- experimental_system: Dihydrofolate reductase (Rattus norvegicus, UniProt Q920D2)
- Sequence (Q920D2 whole entry): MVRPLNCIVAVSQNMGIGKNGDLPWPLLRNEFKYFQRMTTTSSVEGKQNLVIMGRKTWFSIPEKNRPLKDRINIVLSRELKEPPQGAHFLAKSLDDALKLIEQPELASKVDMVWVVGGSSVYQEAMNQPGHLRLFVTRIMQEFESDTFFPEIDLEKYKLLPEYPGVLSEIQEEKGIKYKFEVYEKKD
quantity_measured: IC50 (µM)
Unit µM implied. Number only.

Value lookup for IC50; key = Nc1nc(N)c2[nH]c(Cc3ccc(Cl)c(Cl)c3)nc2n1
252

====

- System: HT-29
- experiment_notes: Growth inhibitory activity against human HT-29 cell line in presence of Hypoxanthine thymidine(HT)
- Type: functional
quantity_measured: GI50 (µM)
Unit µM implied. Number only.

// solved cases for GI50 follow
Value lookup for GI50; key = CCc1nc(N)nc(N)c1-c1ccc(N(C)Cc2ccccc2)c([N+](=O)[O-])c1
9.2

Value lookup for GI50; key = CCc1nc(N)nc(N)c1-c1ccc(NCc2ccccc2OC)c([N+](=O)[O-])c1
11.6

Value lookup for GI50; key = Nc1ncc(-c2ccc(NCc3ccc(F)cc3)c([N+](=O)[O-])c2)cn1
38

Value lookup for GI50; key = CCc1nc(N)nc(N)c1-c1ccc2[nH]c(-c3ccc(F)cc3)[n+]([O-])c2c1
39

Value lookup for GI50; key = Nc1ncc(-c2ccc(NCc3ccc(Cl)cc3)c([N+](=O)[O-])c2)cn1
25

Value lookup for GI50; key = CN(Cc1ccccc1)c1ccc(-c2cnc(N)nc2)cc1[N+](=O)[O-]
17

Value lookup for GI50; key = CCc1nc(N)nc(N)c1-c1ccc(Cl)c([N+](=O)[O-])c1
40

We next turn to a different compound, shown below.
Value lookup for GI50; key = COc1cc(NCc2ccc3nc(N)nc(N)c3c2C)cc(OC)c1OC [TRIMETREXATE]
21
